System Name: GCase (Homo sapiens, UniProt P04062)
Construct: endogenous in cells; host or cells: HeLa cells
Sequence (P04062 40-536): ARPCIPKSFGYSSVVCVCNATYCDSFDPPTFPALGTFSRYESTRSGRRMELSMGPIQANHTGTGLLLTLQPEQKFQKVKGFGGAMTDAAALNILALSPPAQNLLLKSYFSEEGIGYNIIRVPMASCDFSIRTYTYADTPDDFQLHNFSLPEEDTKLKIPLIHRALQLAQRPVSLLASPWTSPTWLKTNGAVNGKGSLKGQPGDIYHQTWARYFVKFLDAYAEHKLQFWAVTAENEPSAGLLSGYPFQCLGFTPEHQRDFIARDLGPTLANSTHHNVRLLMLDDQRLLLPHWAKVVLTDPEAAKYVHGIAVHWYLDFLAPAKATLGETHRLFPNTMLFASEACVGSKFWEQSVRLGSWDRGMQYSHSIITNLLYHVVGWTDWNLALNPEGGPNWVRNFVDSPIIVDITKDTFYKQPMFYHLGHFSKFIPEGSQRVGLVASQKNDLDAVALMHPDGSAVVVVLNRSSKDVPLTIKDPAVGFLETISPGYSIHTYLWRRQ
Assay Summary: activation of GCase in a live cell PFB assay in HELA cells
Type: cell-based
Assay Conditions: activation of GCase, EC50 ranges
Description: Exemplary compounds were evaluated for activation of GCase in a live cell PFB assay in HELA cells (essentially as described in Ysselstein et al., “LRRK2 kinase activity regulates lysosomal glucocerebrosidase in neurons derived from Parkinson's disease patients” Nature Communications (2019) 10:5570). […] EC50 ranges: A: <10 μM; B: >10-50 μM; C: >50-100 μM; D: >100 μM.
Endpoint Name: EC50

Cc1nc(N2CC3(CCN(c4cnc5cnn(CC(F)F)c5n4)C3=O)C2)cc(C(F)(F)F)n1 ... < 10 µM
Cc1cc(C)c(N2CCC3(CCN(c4cnc5cnn(CC(F)F)c5n4)CC3)C2)nn1 ... 10 to 50 µM
Cc1nc(N2CC3(CCN(c4cnc5c(C)nn(CC(F)F)c5n4)CC3)C2)cc(C(F)(F)F)n1 ... < 10 µM
FC(F)Cn1ncc2ncc(N3CCC4(CC3)CC(COc3cnccc3C(F)(F)F)C4)nc21 ... < 10 µM
O=C1N(c2nccc(C(F)(F)F)n2)CCC12CCN(c1cnc3cnn(C4COC4)c3n1)CC2 ... < 10 µM
Cc1nc(N2CCC3(CCN(c4cnc5cnn(CC(F)F)c5n4)CC3)C2)cc(C(F)(F)F)n1 ... < 10 µM
Cc1nn(CC(F)F)c2nc(N3CC4(CCCN(c5ccc(C(F)(F)F)nc5)C4)C3)cnc12 ... > 100 µM
FC(F)(F)c1ccc(N2CCC3(CCN(c4cncc(N5CCCCC5)n4)CC3)C2)cn1 ... < 10 µM
CCN1C(=O)N(c2cnc3cnn(CC(F)F)c3n2)C(=O)C12CCN(c1ccc(C(F)(F)F)nc1)CC2 ... < 10 µM
CCn1c(N2CCC3(CN(c4cc(C(F)(F)F)nc(C)n4)C3)C2)nc2c(cnn2CC(F)(F)F)c1=O ... < 10 µM
CCc1nccn1-c1cncc(N2CCC3(CC2)CCN(c2cc(C(F)(F)F)ccn2)C3=O)n1 ... < 10 µM
Cc1cc(N2CC3(CCN(c4ncc5cnn(C6COC6)c5n4)C3)C2)nc(C)n1 ... 10 to 50 µM
O=C1N(Cc2cc(C(F)(F)F)ccn2)CCC12CCN(c1cnc3cnn(CC(F)F)c3n1)CC2 ... < 10 µM
CC(C)N1C(=O)N(c2ccc(C(F)(F)F)nc2)C(=O)C12CCN(c1cnc3cnn(CC(F)F)c3n1)CC2 ... 10 to 50 µM
FC(F)Cn1ncc2ncc(N3CCC4(CCC4Oc4cccnc4C(F)(F)F)CC3)nc21 (stereo not shown) ... < 10 µM
O=C1CC2(CCN(c3cnc4cnn(CC(F)F)c4n3)CC2)CN1Cc1cccc(C(F)(F)F)n1 ... < 10 µM

---

// values below are reported EC50
System Name: GCase (Homo sapiens)
Construct: endogenous in cells; host or cells: HeLa cells
Assay Summary: activation of GCase in a live cell PFB assay in HELA cells
Format: cell-based
Assay Conditions: activation of GCase, EC50 ranges
Endpoint Name: EC50

Cc1nn(CC(F)F)c2nc(N3CCC4(CCN(c5cnc(C(F)(F)F)nc5)C4)C3)ncc12 (centres unmarked) ... 10 to 50 µM
FC(F)Cn1ncc2ncc(N3CCC4(CN(c5ccc(OC(F)(F)F)nc5)C4)C3)nc21 ... 10 to 50 µM
FC(F)Cn1ncc2ncc(N3CCC4(CN(c5cc(C(F)(F)F)ccn5)CCO4)C3)nc21 (centres unmarked) ... 50 to 100 µM
FC(F)Cn1ncc2ncc(N3CCC4(CC3)CC(Oc3cccc(C(F)(F)F)n3)C4)nc21 ... 10 to 50 µM
Cc1nc(N2CC3(CCN(c4ccc5nccn5n4)C3)C2)cc(C(F)(F)F)n1 ... 10 to 50 µM
CC[C@@H]1N(c2cnc(C(F)(F)F)nc2)C[C@]12CCN(c1cnc3cnn(CC(F)F)c3n1)C2 ... 10 to 50 µM
Cc1nc(N2CC3(CCN(c4ncc5cnn(C)c5n4)C3)C2)cc(C(F)(F)F)n1 ... 10 to 50 µM
O=C1N(c2ccc(C(F)(F)F)nc2)C(=O)C2(CCN(c3cnc4cnn(CC(F)F)c4n3)CC2)N1CCOC(F)(F)F ... < 10 µM
